Molecular target: AsPC-1 HiBiT-KRASG12D (Homo sapiens, UniProt P01116, G12D)
Construct: insert the HiBiT tag onto the N-terminus of one or more of the endogenous KRAS alleles; endogenous in cells; host or cells: AsPC-1 (ATCC CRL-1682), CRISPR-Cas9 knock-in clone, one tagged allele
Sequence (P01116 1-188 isoform P01116-2 G12D): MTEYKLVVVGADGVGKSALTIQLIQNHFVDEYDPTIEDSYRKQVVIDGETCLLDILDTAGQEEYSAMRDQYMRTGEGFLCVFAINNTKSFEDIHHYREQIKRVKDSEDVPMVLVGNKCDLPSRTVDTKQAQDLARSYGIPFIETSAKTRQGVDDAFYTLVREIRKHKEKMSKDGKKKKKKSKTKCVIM
Experiment: HiBiT degradation assay (G12D), AsPC-1 HiBiT-KRASG12D cells
Type: cell-based
Conditions: ASPC1, AsPC-1 HiBiT-KRASG12D cells, 24 hours treatment, maximum degradation observed
OUTCOME_MEASURE: Dmax

Would you please look over these solved cases?
>>> observed_result("CCc1cccc2cc(O)cc(-c3ncc4c(N5CCCCCC5)nc(OC[C@]56CCCN5[C@H](COC(=O)N5CCC(Oc7cc([C@@H](C(=O)N8C[C@H](O)C[C@H]8C(=O)N[C@@H](C)c8ccc(-c9scnc9C)cc8)C(C)C)on7)CC5)CC6)nc4c3F)c12 [Compound 282]")
"< 20%"
>>> observed_result("CCc1cccc2cc(O)cc(-c3ncc4c(N5CC6CCC(C5)N6)nc(OCCN5CCC(F)(CN6CCN(c7cc([C@H](C(=O)N8C[C@H](O)C[C@H]8C(=O)N[C@@H](C)c8ccc(-c9scnc9C)cc8)C(C)C)on7)[C@@H](C)C6)CC5)nc4c3F)c12 [Compound 209]")
"80 to 100%"
>>> observed_result("CCc1cccc2cc(O)cc(-c3ncc4c(N5CC6CCC(C5)N6)nc(OCCN5CCC[C@H](CN6CCN(c7cc([C@H](C(=O)N8C[C@H](O)C[C@H]8C(=O)N[C@@H](C)c8ccc(-c9scnc9C)cc8)C(C)C)on7)CC6)C5)nc4c3F)c12 [Compound 243]")
"80 to 100%"
>>> observed_result("C#Cc1c(F)ccc2cccc(-c3ncc4c(N5CC6CCC(C5)N6)nc(OC[C@@]56CCCN5[C@H](COc5cc([C@H](C(=O)N7C[C@H](O)C[C@H]7C(=O)N[C@@H](C)c7ccc(-c8scnc8C)cc7)C(C)C)on5)CC6)nc4c3F)c12 [Compound 52]")
"80 to 100%"
>>> observed_result("CCc1cccc2cc(O)cc(-c3ncc4c(N5CC6CCC(C5)N6)nc(OCCN5CCC(CC6CN(c7cc(C(C(=O)N8C[C@H](O)C[C@H]8C(=O)N[C@@H](C)c8ccc(-c9scnc9C)cc8)C(C)C)on7)C6)CC5)nc4c3F)c12 (relative stereo) [Compound 82]")
"20 to 60%"

Query string: For the compound shown here, CCc1cccc2cc(O)cc(-c3ncc4c(N5CCCCCC5)nc(OC[C@]56CCCN5[C@H](COC(=O)N5CCC(Oc7cc([C@H](C(=O)N8C[C@H](O)C[C@H]8C(=O)N[C@@H](C)c8ccc(-c9scnc9C)cc8)C(C)C)on7)CC5)CC6)nc4c3F)c12 [Compound 286] , give the reported Dmax.
Result string: 80 to 100%

Query string: Please answer likewise for C#Cc1c(F)ccc2cc(O)cc(-c3ncc4c(N5CC6CCC(C5)N6)nc(OCCN5CCC(F)(COc6cc([C@@H](C(=O)N7C[C@H](O)C[C@H]7C(=O)N[C@@H](C)c7ccc(-c8scnc8C)cc7)C(C)C)on6)CC5)nc4c3F)c12 [Compound 154]
Result string: 80 to 100%

Query string: Note, next up: C#Cc1c(F)ccc2cc(O)cc(-c3ncc4c(N5CC6CCC(C5)N6)nc(OCCN5CCC6(CC5)CN(c5cc([C@H](C(=O)N7C[C@H](O)C[C@H]7C(=O)N[C@@H](C)c7ccc(-c8scnc8C)cc7)C(C)C)on5)C6)nc4c3F)c12 [Compound 33]
Result string: 80 to 100%
